Origin of the recorded values: ChEMBL document CHEMBL5543075

// Acetylcholinesterase (Homo sapiens, UniProt P22303) IC50 records
Give bare numbers, in µM.

Previously resolved entries follow.
# smiles text, IC50 (µM)
records = [
    ("Cc1cc(C)cc(Oc2ccc3nc4c(c(N)c3c2)CCCC4)c1", 1.62),
    ("COc1ccccc1Oc1ccc2nc3c(c(N)c2c1)CCCC3.Cl", 0.84),
    ("COc1ccccc1Oc1ccc2nc3c(c(N)c2c1)CCC3.Cl", 8.52),
]

Need IC50 for each of these molecules.
1. Nc1c2c(nc3ccc(Oc4ccccc4)cc13)CCC2
2. Cc1ccc(Oc2ccc3nc4c(c(N)c3c2)CCC4)cc1

1: 6.42; 2: 8.36

Dear reader, for each entry below, please note its IC50.
1. Nc1c2c(nc3ccc(Oc4ccccc4)cc13)CCCCC2
2. COc1ccc(Oc2ccc3nc4c(c(N)c3c2)CCC4)cc1
3. Cc1cc(C)cc(Oc2ccc3nc4c(c(N)c3c2)CCC4)c1
4. Cc1ccccc1Oc1ccc2nc3c(c(N)c2c1)CCC3.Cl

[5.36, 4.24, 3.72, 28.2]
